These measurements were taken from patent US20240109903A1.

Tested on: HL-60(TB)
Experiment: NCI 60 five-dose screen HL-60(TB)
Format: cell-based
Settings: Homo sapiens, five-dose
Listing of recorded IC (TGI) by entry.

1) FC(F)(F)CN1CCN(CCn2c(C(F)(F)F)cc3c(Cl)ncnc32)CC1    8.13 µM
2) OC1CCC(Cn2c(C(F)(F)F)cc3c(Cl)ncnc32)CC1 (centres unmarked)    8.91 µM
3) FC(F)(F)c1cc2c(Cl)ncnc2n1CCN1CCCCC1    7.41 µM

[in] Consider the molecule FC(F)(F)c1cc2c(Cl)ncnc2n1CCN1CCOCC1 . State its measured IC (TGI).
[out] 6.03 µM

[in] Consider the molecule FC(F)(F)c1cc2c(Cl)ncnc2n1CCC1CCOCC1 . State its measured IC (TGI).
[out] 5.01 µM

###

Test system: PC-3
Experiment: NCI 60 five-dose screen PC-3
Format: cell-based
Details: Homo sapiens, five-dose
Listing of recorded IC (TGI) by entry.
All answers are understood in µM, so give the number only.

Solved cases below.
1. FC(F)(F)CN1CCN(CCn2c(C(F)(F)F)cc3c(Cl)ncnc32)CC1 [NUCC-0226683]    12
2. FC(F)(F)c1cc2c(Cl)ncnc2n1CCN1CCOCC1 [NUCC-0226680]    36.3
3. OC1CCC(Cn2c(C(F)(F)F)cc3c(Cl)ncnc32)CC1 (centres unmarked) [NUCC-0226689]    36.3
4. FC(F)(F)c1cc2c(Cl)ncnc2n1CCN1CCCCC1 [NUCC-0226679]    47.9

[in] Name the recorded IC (TGI) of FC(F)(F)c1cc2c(Cl)ncnc2n1CCC1CCOCC1 [NUCC-0226674] , assay system PC-3.
[out] 11.2

###

System: KM12
Assay: NCI 60 five-dose screen KM12
Type: cell-based
Settings: Homo sapiens, five-dose
Assign labels as follows, please: 1.0 for IC50 below 40 µM; 0.0 for IC50 equal to or exceeding 40 µM.

# example entries with known answers
1. FC(F)(F)CN1CCN(CCn2c(C(F)(F)F)cc3c(Cl)ncnc32)CC1    1.0
2. OC1CCC(Cn2c(C(F)(F)F)cc3c(Cl)ncnc32)CC1 (centres unmarked)    1.0
3. FC(F)(F)c1cc2c(Cl)ncnc2n1CCC1CCOCC1    1.0

[in] Quick check: IC50 of FC(F)(F)c1cc2c(Cl)ncnc2n1CCN1CCCCC1 under 40 µM?
[out] 0.0

[in] Quick check: IC50 of FC(F)(F)c1cc2c(Cl)ncnc2n1CCN1CCOCC1 under 40 µM?
[out] 0.0

###

Tested on: COLO 205
Experiment: NCI 60 five-dose screen COLO 205
Format: cell-based
Settings: Homo sapiens, five-dose, read-out: LC50 (the source's name) (converted)
Listing of recorded CC50 by entry.

1) FC(F)(F)c1cc2c(Cl)ncnc2n1CCN1CCOCC1    ≥ 100 µM
2) FC(F)(F)c1cc2c(Cl)ncnc2n1CCC1CCOCC1    85.1 µM
3) FC(F)(F)CN1CCN(CCn2c(C(F)(F)F)cc3c(Cl)ncnc32)CC1    ≥ 100 µM
4) FC(F)(F)c1cc2c(Cl)ncnc2n1CCN1CCCCC1    ≥ 100 µM

Shift focus to the following entry.
[in] Consider the compound OC1CCC(Cn2c(C(F)(F)F)cc3c(Cl)ncnc32)CC1 (centres unmarked) . State its measured CC50.
[out] ≥ 100 µM
